Molecular target: T1, monkey CTLA-4, full length, on transfected HEK293 cells (monkey)
T1 construct: whole, on cells; also called cCTLA-4; HEK293-cCTLA-4
Test: FACS, 293F-cCTLA-4 cells

BINDER: 97A8D1 (chimeric antibody purified from hybridoma supernatant) (antibody, V domains shown, also called mAb49; mAb049) VH: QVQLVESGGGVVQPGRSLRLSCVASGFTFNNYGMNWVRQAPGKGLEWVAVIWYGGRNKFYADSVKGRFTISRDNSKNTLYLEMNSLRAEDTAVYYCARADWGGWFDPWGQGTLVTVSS VL: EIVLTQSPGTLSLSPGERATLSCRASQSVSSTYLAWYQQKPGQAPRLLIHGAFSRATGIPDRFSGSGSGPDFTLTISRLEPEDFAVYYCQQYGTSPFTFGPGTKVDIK
MFI at 200 nM: 831
